# assay_target: CYP2C8 (Homo sapiens, UniProt P10632)
# Construct: Pooled human liver microsomes (from sixteen individuals) were used as the source of enzymes; tissue XenoTech, LLC; host or cells: human liver microsomes, pool of sixteen donors
# Sequence (P10632 whole entry): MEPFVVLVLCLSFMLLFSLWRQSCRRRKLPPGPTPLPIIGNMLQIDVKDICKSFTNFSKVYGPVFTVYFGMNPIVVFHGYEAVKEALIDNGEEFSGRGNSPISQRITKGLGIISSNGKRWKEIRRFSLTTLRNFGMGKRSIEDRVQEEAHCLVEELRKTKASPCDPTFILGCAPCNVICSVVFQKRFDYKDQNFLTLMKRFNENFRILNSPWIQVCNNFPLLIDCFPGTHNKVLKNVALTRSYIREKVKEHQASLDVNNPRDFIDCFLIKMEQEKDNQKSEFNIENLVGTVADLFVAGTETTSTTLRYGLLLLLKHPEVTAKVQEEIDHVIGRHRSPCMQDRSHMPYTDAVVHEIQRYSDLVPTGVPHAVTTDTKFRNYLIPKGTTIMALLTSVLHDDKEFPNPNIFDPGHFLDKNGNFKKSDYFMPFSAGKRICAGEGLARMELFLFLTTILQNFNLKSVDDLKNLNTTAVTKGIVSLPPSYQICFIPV
# procedure_summary: CYP2C8 inhibition, amodiaquine N-dealkylation in human liver microsomes
# Type: in vitro ADME
# condition_details: time-dependent inhibition, 30-minute pre-incubation

compound | IC50
CC(C)(C)NC(=O)NC(C(=O)N1CC2C([C@H]1C(=O)NC(CC1CCC1)C(=O)C(N)=O)C2(C)C)C(C)(C)C (stereo partly shown) | > 100 µM

###

# assay_target: CYP2B6 (Homo sapiens)
# Construct: Pooled human liver microsomes (from sixteen individuals) were used as the source of enzymes; tissue XenoTech, LLC; host or cells: human liver microsomes, pool of sixteen donors
# Sequence (P20813 whole entry): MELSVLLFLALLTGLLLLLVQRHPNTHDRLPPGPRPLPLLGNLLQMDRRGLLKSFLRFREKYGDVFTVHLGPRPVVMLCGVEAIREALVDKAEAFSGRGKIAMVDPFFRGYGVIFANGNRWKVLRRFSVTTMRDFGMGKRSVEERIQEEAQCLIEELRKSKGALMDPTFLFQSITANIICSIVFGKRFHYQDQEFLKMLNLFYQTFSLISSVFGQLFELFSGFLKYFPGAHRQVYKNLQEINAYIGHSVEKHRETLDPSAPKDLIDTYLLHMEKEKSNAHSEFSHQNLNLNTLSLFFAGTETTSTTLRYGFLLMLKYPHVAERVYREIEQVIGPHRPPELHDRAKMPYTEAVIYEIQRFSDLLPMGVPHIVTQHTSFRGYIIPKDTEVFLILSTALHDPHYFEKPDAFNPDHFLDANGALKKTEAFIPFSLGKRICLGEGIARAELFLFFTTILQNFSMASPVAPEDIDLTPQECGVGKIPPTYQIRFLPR
# procedure_summary: CYP2B6 inhibition, bupropion hydroxylation in human liver microsomes
# Type: in vitro ADME
# condition_details: human, pooled human liver microsomes, pH 7.4, probe bupropion (hydroxylation), direct inhibition, zero-minute pre-incubation; read-out: Max. Inhib. at 100 μM
property_label: inhibition at 5 min, 100 µM

compound | assay_target | property_label | result
CC(C)(C)NC(=O)NC(C(=O)N1CC2C([C@H]1C(=O)NC(CC1CCC1)C(=O)C(N)=O)C2(C)C)C(C)(C)C (stereo partly shown) [Boceprevir] | CYP2B6 (Homo sapiens) | inhibition at 5 min, 100 µM | 2.3%

Reference source: patent US20140162942A1
